Items are presented alongside their recorded Kd.
system: PIM2 (Homo sapiens)
Sequence (Q9P1W9 whole entry): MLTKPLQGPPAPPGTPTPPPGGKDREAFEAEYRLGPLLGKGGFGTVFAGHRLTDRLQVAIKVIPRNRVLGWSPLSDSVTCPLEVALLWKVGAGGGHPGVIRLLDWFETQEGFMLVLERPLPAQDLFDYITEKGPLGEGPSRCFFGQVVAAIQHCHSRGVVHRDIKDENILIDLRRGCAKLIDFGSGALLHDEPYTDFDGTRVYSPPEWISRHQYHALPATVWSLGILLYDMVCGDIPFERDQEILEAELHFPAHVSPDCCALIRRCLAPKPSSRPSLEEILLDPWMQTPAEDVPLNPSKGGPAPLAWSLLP
experimental.protocol: Binding/displacement assay with FA or TGLI readout
Design: made in house
condition.info: mean ± SEM, N = 2
Square brackets hold non-standard residues; d marks the D form. Peptide text beside a SMILES is read from it. * marks the point of attachment. X3 = O=C(CCCCCNCc1nc2c(sc3cc(Br)cnc32)c(=O)[nH]1)*
assay.readout: Kd (nM)

{"compound": "CN1C(=CC=CC=CC2=[N+](CCCCCC(=O)NCCCC[C@@H](NC(=O)[C@@H](CCCNC(=N)N)NC(=O)CNC(=O)[C@@H](CCCNC(=N)N)NC(=O)[C@@H](CCCNC(=N)N)NC(=O)CCCCc3cn(Cc4nc5c(sc6ccc(Br)cc65)c(=O)[nH]4)nn3)C(N)=O)c3ccccc3C2(C)C)C(C)(C)c2ccccc21", "assay.readout": "Kd", "obs.value": 28.2}
{"compound": "N=C(N)NCCC[C@@H](NC(=O)CNC(=O)[C@@H](CCCNC(=N)N)NC(=O)[C@@H](CCCNC(=N)N)NC(=O)CCCCCCCNCc1nc2c(sc3cc(Br)cnc32)c(=O)[nH]1)C(=O)N[C@H](CCCCN)C(N)=O", "assay.readout": "Kd", "obs.value": 64}
{"compound": "N=C(N)NCCC[C@@H](NC(=O)CNC(=O)[C@@H](CCCNC(=N)N)NC(=O)[C@@H](CCCNC(=N)N)NC(=O)CCCCc1cn(Cc2nc3c(sc4ccc(Br)cc43)c(=O)[nH]2)nn1)C(=O)N[C@H](CCCCN)C(N)=O", "assay.readout": "Kd", "obs.value": 20}
{"compound": "N=C(N)NCCC[C@@H](NC(=O)CCCCCNCc1nc2c(sc3cc(Br)cnc32)c(=O)[nH]1)C(=O)N[C@H](CCCNC(=N)N)C(=O)N[C@H](CCCNC(=N)N)C(=O)N[C@H](CCCNC(=N)N)C(=O)N[C@H](CCCNC(=N)N)C(=O)N[C@H](CCCNC(=N)N)C(=O)N[C@H](CCCCN)C(N)=O [ARC-3126, BPTP-Ahx-(D-Arg)6-D-Lys-NH2] (X3-[dR][dR][dR][dR][dR][dR][dK]-NH2)", "assay.readout": "Kd", "obs.value": 2.9}
{"compound": "N=C(N)NCCC[C@@H](NC(=O)CNC(=O)[C@@H](CCCNC(=N)N)NC(=O)[C@@H](CCCNC(=N)N)NC(=O)CCCCCCCNCc1nc2c(sc3ccc(Br)cc32)c(=O)[nH]1)C(=O)N[C@H](CCCCN)C(N)=O", "assay.readout": "Kd", "obs.value": 3.8}

---

system: DYRK2 (Homo sapiens, UniProt Q92630)
Sequence (Q92630 1-601): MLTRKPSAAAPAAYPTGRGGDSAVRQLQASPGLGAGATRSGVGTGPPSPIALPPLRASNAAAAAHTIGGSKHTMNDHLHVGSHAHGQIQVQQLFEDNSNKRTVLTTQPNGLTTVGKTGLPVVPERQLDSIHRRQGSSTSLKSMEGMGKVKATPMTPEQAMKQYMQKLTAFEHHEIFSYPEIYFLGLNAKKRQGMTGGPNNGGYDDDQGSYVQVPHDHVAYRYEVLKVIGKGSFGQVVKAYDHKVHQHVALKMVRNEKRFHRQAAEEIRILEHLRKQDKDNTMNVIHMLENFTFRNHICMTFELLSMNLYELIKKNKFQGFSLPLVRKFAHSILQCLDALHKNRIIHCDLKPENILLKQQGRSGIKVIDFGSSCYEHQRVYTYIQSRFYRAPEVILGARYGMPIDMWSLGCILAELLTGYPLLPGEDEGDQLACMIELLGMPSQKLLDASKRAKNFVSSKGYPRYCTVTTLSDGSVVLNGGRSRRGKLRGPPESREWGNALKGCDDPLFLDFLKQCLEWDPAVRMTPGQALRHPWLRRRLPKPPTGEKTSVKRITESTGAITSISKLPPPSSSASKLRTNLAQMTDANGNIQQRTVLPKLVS
experimental.protocol: Kinase profiling (radiometric filter-binding)
Type: biochemical
condition.info: DYRK2, 1 µM inhibitor; read-out: Residual activity, %
Measured remaining activity at 1 µM by item

{"line.notation": "N=C(N)NCCC[C@@H](NC(=O)CCCCCNC(=O)Cn1cnc2c(I)c(I)c(I)c(I)c21)C(=O)N[C@H](CCCNC(=N)N)C(=O)N[C@H](CCCNC(=N)N)C(=O)N[C@H](CCCNC(=N)N)C(=O)N[C@H](CCCNC(=N)N)C(=O)N[C@H](CCCNC(=N)N)C(=O)N[C@H](CCCCN)C(N)=O", "remaining activity at 1 µM / %": 54}
{"line.notation": "N=C(N)NCCC[C@@H](NC(=O)CNC(=O)[C@@H](CCCNC(=N)N)NC(=O)[C@@H](CCCNC(=N)N)NC(=O)CCCCCCCNCc1nc2c(sc3cc(Br)cnc32)c(=O)[nH]1)C(=O)N[C@H](CCCCN)C(N)=O", "remaining activity at 1 µM / %": 85}
{"line.notation": "N=C(N)NCCC[C@@H](NC(=O)CNC(=O)[C@@H](CCCNC(=N)N)NC(=O)[C@@H](CCCNC(=N)N)NC(=O)CCCCCCCNCc1nc2c(sc3ccc(Br)cc32)c(=O)[nH]1)C(=O)N[C@H](CCCCN)C(N)=O", "remaining activity at 1 µM / %": 64}

---

This section presents compounds with their documented remaining activity at 1 µM values.
system: EPH-B1 (Homo sapiens, UniProt P54762)
Sequence (P54762 18-984): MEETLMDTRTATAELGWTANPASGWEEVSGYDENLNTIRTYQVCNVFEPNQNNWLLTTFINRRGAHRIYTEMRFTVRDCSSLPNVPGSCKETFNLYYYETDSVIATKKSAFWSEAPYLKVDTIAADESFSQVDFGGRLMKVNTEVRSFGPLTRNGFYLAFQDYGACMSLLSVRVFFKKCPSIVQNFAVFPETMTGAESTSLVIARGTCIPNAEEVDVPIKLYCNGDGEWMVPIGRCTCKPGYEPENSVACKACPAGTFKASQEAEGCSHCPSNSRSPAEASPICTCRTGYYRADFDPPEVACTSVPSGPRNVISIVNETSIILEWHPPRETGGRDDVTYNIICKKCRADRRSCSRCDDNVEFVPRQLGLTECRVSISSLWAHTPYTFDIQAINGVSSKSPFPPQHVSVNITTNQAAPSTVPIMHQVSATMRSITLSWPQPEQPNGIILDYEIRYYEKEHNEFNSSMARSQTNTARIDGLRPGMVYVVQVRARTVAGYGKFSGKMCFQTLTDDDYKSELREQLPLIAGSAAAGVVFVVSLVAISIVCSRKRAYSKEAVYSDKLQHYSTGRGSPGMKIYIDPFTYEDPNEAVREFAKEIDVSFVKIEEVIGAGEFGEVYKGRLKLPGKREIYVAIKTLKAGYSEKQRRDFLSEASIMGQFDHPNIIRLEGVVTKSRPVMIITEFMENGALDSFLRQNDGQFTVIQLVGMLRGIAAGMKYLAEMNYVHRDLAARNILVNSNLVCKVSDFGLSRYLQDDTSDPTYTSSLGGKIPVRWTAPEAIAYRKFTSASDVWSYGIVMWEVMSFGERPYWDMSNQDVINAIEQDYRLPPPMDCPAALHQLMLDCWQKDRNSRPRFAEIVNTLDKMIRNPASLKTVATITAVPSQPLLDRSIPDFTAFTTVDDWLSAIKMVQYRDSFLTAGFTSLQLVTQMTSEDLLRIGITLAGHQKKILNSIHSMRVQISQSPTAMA
experimental.protocol: Kinase profiling (radiometric filter-binding)
Type: biochemical
condition.info: EPH-B1, 1 µM inhibitor; read-out: Residual activity, %
Square brackets hold non-standard residues; d marks the D form. Peptide text beside a SMILES is read from it. * marks the point of attachment. X3 = O=C(CCCCCNCc1nc2c(sc3cc(Br)cnc32)c(=O)[nH]1)*

{"compound": "N=C(N)NCCC[C@@H](NC(=O)CNC(=O)[C@@H](CCCNC(=N)N)NC(=O)[C@@H](CCCNC(=N)N)NC(=O)CCCCCCCNCc1nc2c(sc3cc(Br)cnc32)c(=O)[nH]1)C(=O)N[C@H](CCCCN)C(N)=O", "system": "EPH-B1 (Homo sapiens, UniProt P54762)", "remaining activity at 1 µM, %": 103}
{"compound": "N=C(N)NCCC[C@@H](NC(=O)CNC(=O)[C@@H](CCCNC(=N)N)NC(=O)[C@@H](CCCNC(=N)N)NC(=O)Cn1cc(CNCc2nc3c(sc4ccc(Br)cc43)c(=O)[nH]2)nn1)C(=O)N[C@H](CCCCN)C(N)=O", "system": "EPH-B1 (Homo sapiens, UniProt P54762)", "remaining activity at 1 µM, %": 106}
{"compound": "N=C(N)NCCC[C@@H](NC(=O)CNC(=O)[C@@H](CCCNC(=N)N)NC(=O)[C@@H](CCCNC(=N)N)NC(=O)CCCCCCCNCc1nc2c(sc3ccc(Br)cc32)c(=O)[nH]1)C(=O)N[C@H](CCCCN)C(N)=O", "system": "EPH-B1 (Homo sapiens, UniProt P54762)", "remaining activity at 1 µM, %": 99}
{"compound": "N=C(N)NCCC[C@@H](NC(=O)CCCCCNC(=O)Cn1cnc2c(I)c(I)c(I)c(I)c21)C(=O)N[C@H](CCCNC(=N)N)C(=O)N[C@H](CCCNC(=N)N)C(=O)N[C@H](CCCNC(=N)N)C(=O)N[C@H](CCCNC(=N)N)C(=O)N[C@H](CCCNC(=N)N)C(=O)N[C@H](CCCCN)C(N)=O", "system": "EPH-B1 (Homo sapiens, UniProt P54762)", "remaining activity at 1 µM, %": 106}
{"compound": "N=C(N)NCCC[C@@H](NC(=O)CCCCCNCc1nc2c(sc3cc(Br)cnc32)c(=O)[nH]1)C(=O)N[C@H](CCCNC(=N)N)C(=O)N[C@H](CCCNC(=N)N)C(=O)N[C@H](CCCNC(=N)N)C(=O)N[C@H](CCCNC(=N)N)C(=O)N[C@H](CCCNC(=N)N)C(=O)N[C@H](CCCCN)C(N)=O [ARC-3126, BPTP-Ahx-(D-Arg)6-D-Lys-NH2] (X3-[dR][dR][dR][dR][dR][dR][dK]-NH2)", "system": "EPH-B1 (Homo sapiens, UniProt P54762)", "remaining activity at 1 µM, %": 96}
